System: HCT-116
Experiment Description: Cytotoxicity against human HCT116 cells after 72 hrs by CCK-8 assay
Type: functional, cell-based
Setup Conditions: HCT-116, 72 h
Each entry below carries its recorded IC50.
The reply should be a number in nM, with the unit left off.

Examples from the recorded data:
CC[C@H](C)[C@@H]1C(=O)O[C@H]1C(=O)N[C@H]1C[C@H]1C[C@@H](CCc1ccccc1)NC(=O)[C@H](C)NC(=O)OCc1ccccc1    1820
C=C[C@H](C[C@@H]1C[C@@H]1NC(=O)[C@@H]1OC(=O)[C@H]1[C@@H](C)CC)NC(=O)[C@H](C)NC(=O)c1ccc2ccccc2c1    2610
C=C[C@H](C[C@@H]1C[C@@H]1NC(=O)[C@@H]1OC(=O)[C@H]1[C@@H](C)CC)NC(=O)[C@H](C)NC(=O)OCc1ccccc1    910

Task: Identify measured IC50 associated with C=C[C@H](C[C@@H]1C[C@@H]1NC(=O)[C@@H]1OC(=O)[C@H]1[C@@H](C)CC)NC(=O)c1ccc2ccccc2c1
Result: 11200

Task: Identify measured IC50 associated with CC[C@H](C)[C@@H]1C(=O)O[C@H]1C(=O)N[C@H]1C[C@H]1C[C@@H](CCc1ccccc1)NC(=O)[C@H](C)NC(=O)c1ccc2ccccc2c1
Result: 790

Task: Identify measured IC50 associated with CC(C)C[C@H](NC(=O)[C@H](Cc1ccccc1)NC(=O)c1cnccn1)B(O)O
Result: 10

Task: Identify measured IC50 associated with C=C[C@H](C[C@@H]1C[C@@H]1NC(=O)[C@@H]1OC(=O)[C@H]1[C@@H](C)CC)NC(=O)[C@H](Cc1ccccc1)NC(=O)OCc1ccccc1
Result: 4160
